# test summary: Plasma concentration of statins in mice
# Format: in vivo
# condition: male, mouse, oral, AngII-infused SmgGDS+/− mice, 24 hours after last of 2-week gavage, atorvastatin 10 mg/kg/day, pravastatin 50 mg/kg/day, read-out: Plasma concentration of statin
reported property: concentration at 24 h (ng/mL)
Answer with a number only, understood to be in ng/mL.

query: What value of measured concentration at 24 h is listed for `CC[C@H](C)C(=O)O[C@H]1C[C@H](O)C=C2C=C[C@H](C)[C@H](CC[C@@H](O)C[C@@H](O)CC(=O)O)[C@H]21` ?
result: 0.64

Sourced from patent US20130065226A1
